I'd be grateful if you could share measured %Inh for these entries.
system: NEK9; conditions: concentration: 1 μM, replicates: in singlicate; n = 1;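 further: KINOMEscan kinase panel screen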
All answers are understood in %, so give the number only.

%Inh for O=C1NC(=O)C(N2CCc3ccccc32)=C1c1ccccc1Cl ?
13

Another compound: CC(C)(C)c1ccc(C(=O)Nc2cn3cc(Cl)ccc3n2)cc1
0

Same for COc1ccc(CNC(=O)NC2CCN(c3ccnc(Nc4cc(OC)c(OC)c(OC)c4)n3)C2)cc1 (stereo not drawn)
15

Cool, now CC1=C(C(=O)Nc2cc3cn[nH]c3cc2F)C(c2ccc(C(F)(F)F)cc2)CC(=O)N1 (stereo not drawn)
0

How about CC(C)(C)c1ccc(C(=O)Nc2cn3cc(-c4cccnc4)ccc3n2)cc1 ?
0

And for CCn1c(-c2cccnc2O)nc2cnccc21 ?
0
